# MEASUREMENT NOTES: log P by HPLC on reversed-phase column (C 18), EEC Directive 79/831 Annex V.A8
# Assay type: physicochemical
# PARTICULARS: reversed-phase HPLC column (C 18), Table 2 (amines IIa); same HPLC method; broad signal
READOUT KIND: chromatographic logP
Respond with the number and no other words.

## Task May I ask what chromatographic logP has been recorded for c1ccc(C2CC3CCC2C3)c(CNC2CC2)c1 (stereo not shown) [IIa.1] ?
## Result 2.01

* * *

# Test system: Alternaria brassicae
# MEASUREMENT NOTES: In vivo preventive test on Alternaria brassicae (leaf spot on radish)
# PARTICULARS: 500 ppm of active ingredient, spray 24 hours before inoculation, evaluated 6 days after inoculation
Answer each item with its documented Efficacy.
Give just the number in %; leave the unit off.

## Task Recorded Efficacy of CC(c1ccccc1C1CC2CCC1C2)N(C(=O)c1c(C(F)F)nn(C)c1F)C1CC1 (stereo not shown) , please.
## Result 97

## Task Quick one: Efficacy for Cn1cc(C(=S)N(Cc2ccccc2C2CC3CCC2C3)C2CC2)c(C(F)F)n1 (mixture of isomers) ?
## Result 75

## Task What value of measured Efficacy is listed for CC(C)c1ccc(C2=CC3CCC2(C)C3(C)C)cc1CN(C(=O)c1c(C(F)F)nn(C)c1F)C1CC1 (stereo not shown) ?
## Result 79

## Task Requested read-out: Efficacy. Entry: Cn1cc(C(=O)N(Cc2ccccc2C2CC3CCC2C3)C2CC2)c(C(F)F)n1 (mixture of isomers)
## Result 80

## Task State the recorded Efficacy for this entry: Cn1nc(C(F)F)c(C(=O)N(Cc2cc(Cl)ccc2C23CCCCC2C3(Cl)Cl)C2CC2)c1F (stereo not shown)
## Result 75

## Task So what's the measured Efficacy for this one? Cn1nc(C(F)F)c(C(=O)N(Cc2ccccc2C2CC3CCC2C3)C2CC2)c1F (mixture of isomers)
## Result 96

## Task Would you mind telling me what Efficacy value was observed for Cn1nc(C(F)F)c(C(=S)N(Cc2ccccc2C2CC3CCC2C3)C2CC2)c1F (mixture of isomers) ?
## Result 97

* * *

# MEASUREMENT NOTES: log P by HPLC on reversed-phase column (C 18), EEC Directive 79/831 Annex V.A8
# Format: physicochemical
# PARTICULARS: Table 1; HPLC C 18, 40° C., 0.1% aqueous formic acid and acetonitrile, gradient 10% to 90% acetonitrile; two values = mixture of endo and exo isomers
Lab note: compare logP against 5. Equal or greater, write 1. Smaller, write -1.

## Task Hi, just wondering whether Cn1nc(C(F)F)c(C(=O)N(Cc2ccccc2C23CCCCCC2C3(Cl)Cl)C2CC2)c1F (stereo not shown) shows logP of 5 or higher.
## Result 1

## Task Determine whether measured logP meets or exceeds 5 for Cn1nc(C(F)F)c(C(=O)N(Cc2cc(Cl)ccc2C23CCCCCC2C3(Cl)Cl)C2CC2)c1F (stereo not shown)
## Result 1

## Task Does the compound Cn1nc(C(F)F)c(C(=S)N(Cc2ccccc2C2CC3CCC2C3)C2CC2)c1Cl (stereo not shown) have recorded logP that is 5 or more?
## Result 1

## Task Could you tell me if the measured logP of Cn1nc(C(F)F)c(C(=O)N(Cc2cc(Cl)ccc2C23CCCCC2C3(Cl)Cl)C2CC2)c1F (stereo not shown) reaches 5 or more?
## Result 1

## Task Given Cn1nc(C(F)F)c(C(=O)N(Cc2cc(Cl)ccc2C23CCCC2C3(Cl)Cl)C2CC2)c1F (stereo not shown) , state whether its logP is at least 5.
## Result -1

## Task Is reported logP greater than or equal to 5 here: Cc1nn(C)c(F)c1C(=O)N(Cc1ccccc1C1CC2CCC1C2)C1CC1 (stereo not shown)
## Result -1

## Task Has CC(C)c1ccc(C2=CC3CCC2(C)C3(C)C)cc1CN(C(=O)c1c(C(F)F)nn(C)c1F)C1CC1 (stereo not shown) a recorded logP greater than or equal to 5?
## Result 1

## Task Test whether the compound Cn1nc(C(F)F)c(C(=O)N(Cc2cc(CC3C4CCC(C4)C3(C)C)ccc2C(C)(C)C)C2CC2)c1F (stereo not shown) records logP of 5 or higher.
## Result 1

## Task I'd appreciate it if you could say whether Cn1cc(C(=O)N(Cc2ccccc2C2=CC3CCC2(C)C3(C)C)C2CC2)c(C(F)(F)F)c1 (stereo not shown) has logP at least equal to 5.
## Result 1

## Task Reported logP reaches at least 5 for Cn1nc(C(F)F)c(C(=O)N(Cc2ccccc2C23CCCCC2C3(Cl)Cl)C2CC2)c1F (stereo not shown) ?
## Result -1

## Task Check this compound for logP at or above 5: Cn1nc(C(F)F)c(C(=O)N(Cc2cc(C34CCCCC3C4(Cl)Cl)ccc2Cl)C2CC2)c1F (stereo not shown)
## Result 1

* * *

Assign Efficacy to each entry below.
# System: Alternaria brassicae
# MEASUREMENT NOTES: In vivo preventive test on Alternaria brassicae (leaf spot on radish)
# PARTICULARS: 500 ppm of active ingredient, spray 24 hours before inoculation, evaluated 6 days after inoculation
Expressed in %, but write only the number.

## Task Please report the recorded Efficacy for Cn1nc(C(F)F)c(C(=O)N(Cc2cc(C34CCCCC3C4(Cl)Cl)ccc2Cl)C2CC2)c1F (stereo not shown) .
## Result 97

## Task Field request: Efficacy | item: Cn1nc(C(F)F)c(C(=O)N(Cc2cc(Cl)ccc2C23CCCCCC2C3(Cl)Cl)C2CC2)c1F (stereo not shown)
## Result 83

## Task Fill blank: measured Efficacy of the compound Cn1nc(C(F)F)c(C(=O)N(Cc2cc(C34CCCC3C4(Cl)Cl)ccc2Cl)C2CC2)c1F (stereo not shown) is ____.
## Result 75

## Task Which Efficacy is reported for this compound? Cn1nc(C(F)F)c(C(=O)N(Cc2ccccc2C23CCCCCC2C3(Cl)Cl)C2CC2)c1F (stereo not shown)
## Result 75
